Quick reference: inhibition at 10 µM of the listed items.
Biological target: HDAC6 enzyme (Homo sapiens, UniProt Q9UBN7)
Construct: prepared by transducing full length HDAC6 gene into Sf-9 insect cells; GST; purchased SignalChem; host or cells: Sf-9 insect cells
Sequence (Q9UBN7 1-1215): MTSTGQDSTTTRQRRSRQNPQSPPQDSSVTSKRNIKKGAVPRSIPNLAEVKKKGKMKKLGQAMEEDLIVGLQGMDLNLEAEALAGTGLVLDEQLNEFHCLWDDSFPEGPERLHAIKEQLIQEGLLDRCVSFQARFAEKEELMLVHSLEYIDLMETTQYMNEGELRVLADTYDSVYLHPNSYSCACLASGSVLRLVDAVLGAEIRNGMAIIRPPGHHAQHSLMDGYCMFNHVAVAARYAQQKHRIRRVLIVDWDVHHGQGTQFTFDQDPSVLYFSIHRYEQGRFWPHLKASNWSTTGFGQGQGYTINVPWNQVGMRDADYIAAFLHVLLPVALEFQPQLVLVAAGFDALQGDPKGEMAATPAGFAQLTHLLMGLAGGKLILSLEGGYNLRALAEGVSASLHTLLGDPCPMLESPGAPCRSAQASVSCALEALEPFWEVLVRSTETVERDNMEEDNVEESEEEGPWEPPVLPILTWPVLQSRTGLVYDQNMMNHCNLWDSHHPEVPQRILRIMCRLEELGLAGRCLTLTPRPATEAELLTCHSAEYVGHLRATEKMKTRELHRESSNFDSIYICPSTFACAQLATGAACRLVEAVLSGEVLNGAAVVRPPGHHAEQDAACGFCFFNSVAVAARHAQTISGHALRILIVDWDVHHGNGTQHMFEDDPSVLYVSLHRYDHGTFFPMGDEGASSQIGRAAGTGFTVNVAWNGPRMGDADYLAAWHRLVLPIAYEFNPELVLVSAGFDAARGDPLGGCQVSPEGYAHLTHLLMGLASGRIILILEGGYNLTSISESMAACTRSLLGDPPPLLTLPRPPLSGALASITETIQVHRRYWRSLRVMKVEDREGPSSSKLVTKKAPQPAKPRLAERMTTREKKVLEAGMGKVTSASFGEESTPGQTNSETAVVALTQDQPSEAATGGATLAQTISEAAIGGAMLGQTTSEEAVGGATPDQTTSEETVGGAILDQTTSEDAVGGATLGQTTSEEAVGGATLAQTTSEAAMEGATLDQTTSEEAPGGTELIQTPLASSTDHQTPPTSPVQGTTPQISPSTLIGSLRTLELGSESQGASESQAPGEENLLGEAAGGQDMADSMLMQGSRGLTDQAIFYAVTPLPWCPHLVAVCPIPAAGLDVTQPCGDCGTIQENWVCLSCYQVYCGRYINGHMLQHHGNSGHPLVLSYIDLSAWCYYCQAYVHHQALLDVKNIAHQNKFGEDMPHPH
Assay: HDAC6 enzyme inhibitory assay (HDAC-Glo I/II Assay kit, luminescence)
Format: biochemical
Details: 10 μM test compound; wells without enzyme = 100% inhibition; read-out: HDAC6 inhibitory rate (%) (10 μM)
OBSERVABLE: inhibition at 10 µM

compound="Fc1cc(-c2nnc(C(F)F)o2)cc(-n2nccc2OC2CCOCC2)c1 [Example 47a]" observable="inhibition at 10 µM" test_result=99%
compound="COC1CCCC(OC(=O)N(Cc2ccc(F)cc2)N2Cc3ccc(-c4nnc(C(F)F)o4)cc3C2=O)C1 (stereo not shown) [Example 24c]" observable="inhibition at 10 µM" test_result=100%
compound="CN(CC1CCC(F)(F)CC1)N1Cc2ccc(-c3nnc(C(F)F)o3)cc2C1=O [Example 62c]" observable="inhibition at 10 µM" test_result=100%
compound="CN1C(=O)c2cc(-c3nnc(C(F)F)o3)ccc2OC1(C)c1ccc(Cl)cc1 (stereo not shown) [Example 26b]" observable="inhibition at 10 µM" test_result=100%
compound="FC(F)c1nnc(-c2ccnc(-c3nccn3Cc3ccccc3)c2)o1 [Example 36a]" observable="inhibition at 10 µM" test_result=101%
compound="O=C1c2cc(-c3nnc(C(F)F)o3)ccc2CN1NCc1ccc(F)cn1 [Example 15c]" observable="inhibition at 10 µM" test_result=99%
compound="CN1CCC(COc2cccnc2-c2cc(F)cc(-c3nnc(C(F)F)o3)c2)CC1=O (stereo not shown) [Example 14a]" observable="inhibition at 10 µM" test_result=97%
compound="O=C1c2cc(-c3nnc(C(F)F)o3)ccc2CN1NCC1CCOCC1 [Example 17c]" observable="inhibition at 10 µM" test_result=98%
compound="CN(Cc1cccc(-c2cnccn2)c1)N1Cc2ccc(-c3nnc(C(F)F)o3)cc2C1=O [Example 53c]" observable="inhibition at 10 µM" test_result=101%
compound="O=C1CCCN1CCOc1cccnc1-c1cc(F)cc(-c2nnc(C(F)F)o2)c1 [Example 15a]" observable="inhibition at 10 µM" test_result=92%
compound="CN(Cc1cncc(Cl)c1)N1Cc2ncc(-c3nnc(C(F)F)o3)cc2C1=O [Example 70c]" observable="inhibition at 10 µM" test_result=100%
compound="CN1C(=O)c2cc(-c3nnc(C(F)F)o3)cnc2CC1(C)c1ccc(F)c(F)c1 (stereo not shown) [Example 38b]" observable="inhibition at 10 µM" test_result=101%
compound="Cc1cc(Cn2ccnc2-c2cc(F)cc(-c3nnc(C(F)F)o3)c2)on1 [Example 62a]" observable="inhibition at 10 µM" test_result=99%
compound="Cc1cc(COc2cccnc2-c2cc(F)cc(-c3nnc(C(F)F)o3)c2)nn1C [Example 10a]" observable="inhibition at 10 µM" test_result=96%
compound="O=C1c2cc(-c3nnc(C(F)F)o3)cnc2CN1Nc1c(F)c(F)c(F)c(F)c1F [Example 33c]" observable="inhibition at 10 µM" test_result=99%
compound="N#Cc1ccnc(Cn2ccnc2-c2cc(-c3nnc(C(F)F)o3)ccn2)c1 [Example 95a]" observable="inhibition at 10 µM" test_result=100%
